Source of measurements: patent US20250276077A1

target-under-test: Human EphA2 (ephrin receptor A2) on cells (human, UniProt P29317 25-976)
Sequence (P29317 25-976): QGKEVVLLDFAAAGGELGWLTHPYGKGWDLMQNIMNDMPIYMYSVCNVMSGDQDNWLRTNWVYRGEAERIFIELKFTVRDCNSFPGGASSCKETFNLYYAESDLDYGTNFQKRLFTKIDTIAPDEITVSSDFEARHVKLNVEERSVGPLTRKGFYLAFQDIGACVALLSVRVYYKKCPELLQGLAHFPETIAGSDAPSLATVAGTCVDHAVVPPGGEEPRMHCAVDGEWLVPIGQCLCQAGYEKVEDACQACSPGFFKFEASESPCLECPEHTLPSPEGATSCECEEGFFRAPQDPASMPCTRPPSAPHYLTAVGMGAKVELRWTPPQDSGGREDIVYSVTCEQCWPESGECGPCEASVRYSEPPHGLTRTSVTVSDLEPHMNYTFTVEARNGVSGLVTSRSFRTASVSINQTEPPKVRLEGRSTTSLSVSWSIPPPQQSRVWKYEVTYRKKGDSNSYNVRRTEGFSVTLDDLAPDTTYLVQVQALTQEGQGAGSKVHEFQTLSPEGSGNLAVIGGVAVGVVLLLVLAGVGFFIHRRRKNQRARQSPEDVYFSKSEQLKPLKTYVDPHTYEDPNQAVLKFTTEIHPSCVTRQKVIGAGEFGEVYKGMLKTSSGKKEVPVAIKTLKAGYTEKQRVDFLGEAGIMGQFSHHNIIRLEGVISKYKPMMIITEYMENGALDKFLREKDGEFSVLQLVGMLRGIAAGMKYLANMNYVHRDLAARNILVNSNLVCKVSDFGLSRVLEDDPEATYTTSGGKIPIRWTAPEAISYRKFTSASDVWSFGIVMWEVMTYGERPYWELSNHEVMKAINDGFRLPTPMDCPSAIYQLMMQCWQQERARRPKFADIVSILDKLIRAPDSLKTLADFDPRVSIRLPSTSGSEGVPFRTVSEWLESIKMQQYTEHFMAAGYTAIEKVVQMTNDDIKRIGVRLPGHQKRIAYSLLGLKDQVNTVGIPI
assay-explanation: cell-based or functional assay
Below is a list of entries, each paired with its recorded ADCP Delta activity (%), A549 value.

[
  {
    "binder": "AB-009805 (antibody, mouse IgG2a, V domains shown) VH: QVQLQQWGAGLLKPSETLSLTCAVYGGSLSDYHWSWIRQPPGKGLEWIGEINHSGSTNYNPSLKSRVTISVDTSKNQFSLKLSSVSAADTAVYYCAKPFRPHCTNGVCHSGDAFDIWGQGTMATVSS VL: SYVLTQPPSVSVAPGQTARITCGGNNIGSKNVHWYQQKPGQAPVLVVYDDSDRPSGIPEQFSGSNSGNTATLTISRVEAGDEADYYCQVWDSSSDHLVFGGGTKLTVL",
    "ADCP Delta activity (%), A549": "17.3%"
  },
  {
    "binder": "AB-009808 (antibody, mouse IgG2a, V domains shown) VH: QVQLQQWGAGLLKPSETLSLTCAVYGGSFSDYYWSWIRQPPGKGLEWIGEINHSGSTNYNPSLKSRVTISVDPSKNQFSLKLTSVTAADTAVYYCAKPFRPHCTNGVCYSGDAFDIWGQGTMVTVSS VL: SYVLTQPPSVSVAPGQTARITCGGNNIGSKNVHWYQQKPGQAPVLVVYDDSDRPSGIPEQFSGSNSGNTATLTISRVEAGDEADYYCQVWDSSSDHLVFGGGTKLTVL",
    "ADCP Delta activity (%), A549": "12.8%"
  },
  {
    "binder": "AB-009806 (antibody, mouse IgG2a, V domains shown) VH: QVQLQQWGAGLLKPSETLSLTCAVYGGSFSDYYWSWIRQPPGKGLEWIGEINHSGSTNYNPSLKSRVTISVDPSKNQFSLKLTSVTAADTAVYYCAKPFRPHCTNGVCYSGDAFDIWGQGTMVTVSS VL: SYVLTQPPSVSVAPGQTARITCGGNNIGTKNVHWYQQKPGQAPVLVVYDDSDRPSGIPEQFSGSNSGNTATLTISRVEAGDEADYYCQVWDSSSDHLVFGGGTKLTVL",
    "ADCP Delta activity (%), A549": "17.9%"
  },
  {
    "binder": "AB-009807 (antibody, mouse IgG2a, V domains shown) VH: QVQLQQWGAGLLKPSETLSLTCAVYGGSFNDYYWSWIRQPPGKGLEWIGEVNHSGSTSYNPSLKSRVTISVDTSKNQFSLKLSSVTAADTAVYYCAKPFRPHCTNGVCYSGDAFDIWGQGTMVTVSS VL: SYVLTQPPSVSVAPGQTARITCGGNNIGSKNVHWYQQKPGQAPALVVYDDSDRPSGIPEQFSGSNSGNTATLTISRVEAGDEADYYCQVWDSSSDHLVFGGGTKLTVL",
    "ADCP Delta activity (%), A549": "11.5%"
  }
]
